Catalogue of binders with associated Phage binding ELISA signal, Anti-PSMA Fab
Biological target: T1, PSMA Fab
T1 construct: Biotinylated and captured on neutravidin plates in the phage ELISA; also called Anti-PSMA Fab; 006 PSMA Fab
Test: clonal phage ELISA on biotinylated PSMA Fab captured on neutravidin plates, anti-M13-HRP detection; blocking buffer alone
Where no end group is shown, it is not given here.
reported_metric: Phage binding ELISA signal, Anti-PSMA Fab

{"binder": "YEKWCIPRWMCEAN (cysteine pairing not given here; also: fused to phage pIII, linker and fusion site not given here, Clonal phage of the Peptide-180 library, tested as crude supernatant; not shown: pIII coat protein of the bacteriophage to which the peptide is fused) [Phage-2531]", "recorded_result": 1.16}
{"binder": "IVKWCTPHWMCSGW (cysteine pairing not given here; also: fused to phage pIII, linker and fusion site not given here, Clonal phage of the Peptide-180 library, tested as crude supernatant; not shown: pIII coat protein of the bacteriophage to which the peptide is fused) [Phage-2529]", "recorded_result": 1.17}
